# Test system: Aeromonas 1 (Aeromonas sp. AE235)
# assay.text: relative growth (AUC of 72 h growth curve relative to DMSO control, dAUC) (ratio); higher = more growth (less inhibition), active = hit call of the paper
# applied.conditions: 20 µM
observable: relative growth

Clc1ccc(C(c2ccc(Cl)cc2)C(Cl)(Cl)Cl)cc1; 0.999
CC(C)N1C(=O)c2ccccc2NS1(=O)=O; 0.965
ClC1C(Cl)C(Cl)C(Cl)C(Cl)C1Cl (centres undefined); 1.02
O=C1C=C(N(Cc2ccc(Cl)nc2)CC(F)F)CO1; 0.953
CC(COc1ccc(Oc2ccccc2)cc1)Oc1ccccn1 (centres undefined); 1.04
OC(Cc1ccccc1Cl)(Cn1nc[nH]c1=S)C1(Cl)CC1 (centres undefined); 0.97
COC(=O)NC(=S)Nc1ccccc1NC(=S)NC(=O)OC; 0.978
CCOP(=S)(OCC)Oc1cc(C)nc(C(C)C)n1; 0.987
COC(=O)c1ccccc1S(=O)(=O)NC(=O)Nc1nc(C)nc(OC)n1; 1.02
CO/N=C(/C(=O)OC)c1ccccc1CO/N=C(\C)c1cccc(C(F)(F)F)c1; 0.966
C[N+](C)(C)CCCl; 0.996
Fc1ccc([C@]2(Cn3cncn3)O[C@H]2c2ccccc2Cl)cc1 (racemic); 0.946
CCCCOC(=O)[C@H](C)Oc1ccc(Oc2ccc(C#N)cc2F)cc1; 1.04
COCC(=O)N(c1c(C)cccc1C)[C@H](C)C(=O)OC; 0.971
O=C(NC(=O)c1c(F)cccc1F)Nc1ccc(Cl)cc1; 1.01
Cc1cccc2sc3nncn3c12; 0.985
CC1(C)CON(Cc2ccccc2Cl)C1=O; 0.978
Cc1cc(C(C#N)c2ccc(Cl)cc2)c(Cl)cc1NC(=O)c1cc(I)cc(I)c1O (centres undefined); 0.979
COP(N)(=O)SC (centres undefined); 0.996
CCCN(CCC)C(=O)SCc1ccccc1; 1.03
Nc1c([N+](=O)[O-])ccc(Oc2ccccc2)c1Cl; 0.959
CC(C)N(C(=O)COc1nnc(C(F)(F)F)s1)c1ccc(F)cc1; 1.04
CCOP(=S)(OCC)Oc1nc(Cl)c(Cl)cc1Cl; 1.05
COC(=O)N(C(=O)N1CO[C@@]2(C(=O)OC)Cc3cc(Cl)ccc3C2=N1)c1ccc(OC(F)(F)F)cc1; 0.96
COCC(C)N(C(=O)CCl)c1c(C)csc1C (centres undefined); 0.991
N#CCNC(=O)c1cnccc1C(F)(F)F; 1.01
CC1COC(Cn2cncn2)(c2ccc(Oc3ccc(Cl)cc3)cc2Cl)O1 (centres undefined); 1.08
C#CCN1C(=O)COc2cc(F)c(N3C(=O)C4=C(CCCC4)C3=O)cc21; 0.987
CC(C)OC(=O)C(C(=O)OC(C)C)=C1SCCS1; 0.961
Cc1cc(C)nc(Nc2ccccc2)n1; 0.974
CC1(C)[C@H](C(=O)O[C@H](C#N)c2cccc(Oc3ccccc3)c2)[C@@H]1C=C(Br)Br; 1.05
CN/C(=N/CC1CCOC1)N[N+](=O)[O-] (centres undefined); 1
COCc1cnc(C2=NC(C)(C(C)C)C(=O)N2)c(C(=O)O)c1 (centres undefined); 0.932
CC(Oc1ccc(Oc2ncc(C(F)(F)F)cc2Cl)cc1)C(=O)O (centres undefined); 0.952
CCc1cccc(C)c1N(C(=O)CCl)[C@@H](C)COC; 1.01
COC(=O)N(OC)c1ccccc1COc1ccn(-c2ccc(Cl)cc2)n1; 1.04
C#CCOc1ccc(CCNC(=O)C(OCC#C)c2ccc(Cl)cc2)cc1OC (centres undefined); 0.978
CC[C@H](C)C1O[C@]2(C=C[C@@H]1C)C[C@@H]1C[C@@H](C/C=C(\C)[C@@H](O[C@H]3C[C@H](OC)[C@@H](O[C@H]4C[C@H](OC)[C@H](NC)[C@H](C)O4)[C@H](C)O3)[C@@H](C)/C=C/C=C3\CO[C@@H]4[C@H](O)C(C)=C[C@@H](C(=O)O1)[C@]34O)O2 (some centres undefined); 1.08
COc1cc(OC)nc(NC(=O)NS(=O)(=O)c2ncccc2C(=O)N(C)C)n1; 1.06
